Tested on: 422866-222-R5-J1-PDC complex spheroids viability
method_notes: Anticancer human tumor 422866-222-R5-J1-PDC patient-derived pancreatic adenocarcinoma cell line growth inhibition [RAS]
recorded_conditions: second compound 1 µM; first compound 0.0316 µM; stronger effect = lower value
Doc: threshold 30% (exclusive). Items with viability, T/C beneath it return Satisfied; others return Not satisfied.

CC(=O)OC12COC1CC(O)C1(C)C(=O)C(O)C3=C(C)C(OC(=O)C(O)C(NC(=O)OC(C)(C)C)c4ccccc4)CC(O)(C(OC(=O)c4ccccc4)C21)C3(C)C (centres undefined) + C#Cc1c(F)ccc2cc(O)cc(-c3ncc4c(N5CC6CCC(C5)N6)nc(OCC56CCCN5CC(F)C6)nc4c3F)c12 :: Not satisfied
C=CC(=O)N1CCN(c2nc(OCC3CCCN3C)nc3c(F)c(-c4nc(N)cc(C)c4C(F)(F)F)c(Cl)cc23)C(C)C1 (centres undefined) + C#Cc1c(F)ccc2cc(O)cc(-c3ncc4c(N5CC6CCC(C5)N6)nc(OCC56CCCN5CC(F)C6)nc4c3F)c12 :: Satisfied
CC(C)NCC(C(=O)N1CCN(c2ncnc3c2C(C)CC3O)CC1)c1ccc(Cl)cc1 (centres undefined) + C#Cc1c(F)ccc2cc(O)cc(-c3ncc4c(N5CC6CCC(C5)N6)nc(OCC56CCCN5CC(F)C6)nc4c3F)c12 :: Not satisfied
CCC(CC)c1cc(NC2CCC(N)C2)n2nccc2n1 (centres undefined) + C=CC(=O)N1CCN(c2nc(OCC3CCCN3C)nc3c(F)c(-c4nc(N)cc(C)c4C(F)(F)F)c(Cl)cc23)C(C)C1 :: Satisfied
CCN1CCN(Cc2ccc(Nc3ncc(F)c(-c4cc(F)c5nc(C)n(C(C)C)c5c4)n3)nc2)CC1 + C=CC(=O)N1CCN(c2nc(OCC3CCCN3C)nc3c(F)c(-c4nc(N)cc(C)c4C(F)(F)F)c(Cl)cc23)C(C)C1 :: Satisfied

Data request: Here's an entry: C=CC(=O)Nc1cc(Nc2nccc(-c3cn(C)c4ccccc34)n2)c(OC)cc1N(C)CCN(C)C + C=CC(=O)N1CCN(c2nc(OCC3CCCN3C)nc3c(F)c(-c4nc(N)cc(C)c4C(F)(F)F)c(Cl)cc23)C(C)C1 . Is its viability, T/C below 30%?
Data returned: Satisfied

Data request: Here's an entry: NC1c2ccccc2OC12CCN(c1cnc3c(N4CCCc5ncccc54)n[nH]c3n1)CC2 (centres undefined) + C#Cc1c(F)ccc2cc(O)cc(-c3ncc4c(N5CC6CCC(C5)N6)nc(OCC56CCCN5CC(F)C6)nc4c3F)c12 . Is its viability, T/C below 30%?
Data returned: Satisfied

###

System: 422866-222-R5-J1-PDC complex spheroids viability
method_notes: Anticancer human tumor 422866-222-R5-J1-PDC cell line growth inhibition [RAS];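 note: spheroids exposed to compounds for 7 days; 100% = DMSO vehicle control viability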
recorded_conditions: second compound 0.3 µM; first compound 0.316 µM; stronger effect = lower value
measurement_type: viability, T/C (%)
Response body: numeric value in %, unit text excluded.

Data request: Please look up its viability, T/C: Cc1nc(N2CCC3(CC2)COC(C)C3N)c(CO)nc1Sc1ccnc(N)c1Cl (configuration not stated) + CCn1c(-c2cc(N3CCN(C)CC3)cnc2C(C)OC)c2c3cc(ccc31)-c1csc(n1)CC(NC(=O)C1CC1C)C(=O)N1CCCC(N1)C(=O)OCC(C)(C)C2
Data returned: 21.2

Data request: Please look up its viability, T/C: CCN1CCN(Cc2ccc(Nc3ncc(F)c(-c4cc(F)c5nc(C)n(C(C)C)c5c4)n3)nc2)CC1 + CCn1c(-c2cccnc2C(C)OC)c2c3cc(ccc31)N1CCOC(CC(NC(=O)C(C(C)C)N(C)C(=O)C3(F)CCN(C(=O)C#CC(C)(C)N(C)C)CC3)C(=O)N3CCCC(N3)C(=O)OCC(C)(C)C2)C1
Data returned: 24
